Listing of recorded apparent KD of MS2 coat protein by entry.
# Tested on: MS2 coat protein
# experiment-summary: apparent KD of MS2 coat protein; higher = weaker reporter binding
# test-parameters: Eterna round: R107; input ligand: arginine 13.2 mM
recorded-metric: apparent KD of MS2 coat protein (nM)

sequence-data: AGCCCGGGAGCGGCCGCCACUGGAGGCUUUGCGCGACAUGAGGAUCACCCAUGUGUGCCCGGCGUUAGGACCGGGCUCGCGUGGU [#1 Same State - Tryptophan B Attempt #21 (HarryS)]
experimental-result: 27.8
--
sequence-data: CCUGCGUUUCUUUUCUUUCGCAGGAAUGAUACCAGUAGGGAAACCUACCCUUGGCAGCAUGGGACAUGAGGAUCACCCAUGUUUU [SSThA NP+V+V2 #4]
experimental-result: 117
--
sequence-data: GAUGAACUAUAUGAUACCAGACAACAUGAGGAUCACCCAUGUGAUAGUCGUCCUCUGCCUGUCCCUUGGCAGCGUAUAGUUUAUC [XTheo B #19]
experimental-result: 30.7
